What k′MIC was measured for each of the following?
Tested on: mucin immobilized to IAM.PC.DD2
test.description: HPLC on MIC column (2:1 mucin to PC IAM particles): retention time, k′MIC, derived Km and Peff MIC
condition.info: MIC column 2:1 mucin:IAM; MPS pH 7.4
One number for each entry.

INSERT INTO results (compound, readout_name, reported_measurement) VALUES
  ('Nc1nc2c(ncn2COCCO)c(=O)[nH]1', 'k′MIC', 33.5714),
  ('CC(C)(C)NCC(O)c1cc(O)cc(O)c1 (stereo not shown)', 'k′MIC', 43.2857),
  ('CC(=O)CC(c1ccccc1)c1c(O)c2ccccc2oc1=O (stereo not shown)', 'k′MIC', 54.7143);

Here is the next item to consider.
Qu. Provide one value: measured k′MIC of CC(C)Cc1ccc(C(C)C(=O)O)cc1 (stereo not shown)
Ans. 53.2857

###

System: mucin immobilized to PC IAM particles
test.description: pH and mucin layer thickness dependence of partition ratio on MIC columns (1:2 and 2:1)
condition.info: column 2:1 mucin to PC IAM, 0.36 μm mucin layer; mobile phase pH 3
readout.name: (2:1) k′ (pH 3)

INSERT INTO assay_data (compound, readout_name, reported_measurement) VALUES
  ('COc1ccc(Cl)cc1C(=O)NCCc1ccc(S(=O)(=O)NC(=O)NC2CCCCC2)cc1 [glybenclamide]', '(2:1) k′ (pH 3)', 'none'),
  ('CN(Cc1cnc2nc(N)nc(N)c2n1)c1ccc(C(=O)N[C@@H](CCC(=O)O)C(=O)O)cc1 [amethopterin]', '(2:1) k′ (pH 3)', 'none'),
  ('NCC(=O)O [glycine]', '(2:1) k′ (pH 3)', 'none');
